These entries and their values trace back to patent US9051349B2.

- METHOD_DESCRIPTION: physchem
- EXPERIMENTAL_CONTEXT: Dimethyl sulfoxide (DMSO)
Residues, ends and D or L forms follow the SMILES beside them.
OBSERVABLE: solubility

Need solubility, item CC(C)C[C@H](NC(=O)[C@@H](NC(=O)CNC(=O)CN)C(C)C)C(=O)N[C@H](C(=O)N[C@@H](CCC(N)=O)C(=O)N1CCC[C@H]1C(=O)NCC(=O)O)C(C)C [Form A] (H-GGVLVQPG-OH)
< 4000 µg/mL

----------
- METHOD_DESCRIPTION: physchem
- EXPERIMENTAL_CONTEXT: (1:1) Water/MeOH
- Protocol: Approximate solubilities of Larazotide acetate Form A in different solvents were determined. Aliquots of the test solvent were added to weighed samples of Larazotide. The samples were sonicated to aid in dissolution. Visual inspection was used to determine if a sample had dissolved. The approximate solubility was calculated from the total amount of solvent added.
Residues, ends and D or L forms follow the SMILES beside them.
OBSERVABLE: solubility

Need solubility, item CC(C)C[C@H](NC(=O)[C@@H](NC(=O)CNC(=O)CN)C(C)C)C(=O)N[C@H](C(=O)N[C@@H](CCC(N)=O)C(=O)N1CCC[C@H]1C(=O)NCC(=O)O)C(C)C [Form A] (H-GGVLVQPG-OH)
< 3000 µg/mL

----------
- METHOD_DESCRIPTION: physchem
- EXPERIMENTAL_CONTEXT: Acetonitrile (ACN)
Residues, ends and D or L forms follow the SMILES beside them.
OBSERVABLE: solubility

Need solubility, item CC(C)C[C@H](NC(=O)[C@@H](NC(=O)CNC(=O)CN)C(C)C)C(=O)N[C@H](C(=O)N[C@@H](CCC(N)=O)C(=O)N1CCC[C@H]1C(=O)NCC(=O)O)C(C)C [Form A] (H-GGVLVQPG-OH)
< 4000 µg/mL

----------
- METHOD_DESCRIPTION: physchem
- EXPERIMENTAL_CONTEXT: Acetone
Residues, ends and D or L forms follow the SMILES beside them.
OBSERVABLE: solubility

Need solubility, item CC(C)C[C@H](NC(=O)[C@@H](NC(=O)CNC(=O)CN)C(C)C)C(=O)N[C@H](C(=O)N[C@@H](CCC(N)=O)C(=O)N1CCC[C@H]1C(=O)NCC(=O)O)C(C)C [Form A] (H-GGVLVQPG-OH)
< 4000 µg/mL

----------
- METHOD_DESCRIPTION: physchem
- EXPERIMENTAL_CONTEXT: Ethanol (EtOH)
Residues, ends and D or L forms follow the SMILES beside them.
OBSERVABLE: solubility

Need solubility, item CC(C)C[C@H](NC(=O)[C@@H](NC(=O)CNC(=O)CN)C(C)C)C(=O)N[C@H](C(=O)N[C@@H](CCC(N)=O)C(=O)N1CCC[C@H]1C(=O)NCC(=O)O)C(C)C [Form A] (H-GGVLVQPG-OH)
< 4000 µg/mL
